Target: SARS-CoV-2 spike protein (SARS-CoV-2), P0DTC2
Details: remark: other sources report otherwise
Readings of pKd for the listed binders
Note on pKd: it is the negative log10 of concentration, concentration in mol/L.

antibody 436 (antibody, V domains shown) VH: QVQVVESGGGVVQPGRSLRLSCAASGFTFSSYAMHWVRQAPGKGLEWVAVISYDGNNEYYVDPVKGRFTISRDNSKNTLYLQMNSLRAEDTALYYCATSREAIVVGGILDYWGQGTLVTVSS VL: DIQMTQSPSSLSASVGDRVTITCQASHDINNFLNWYQQKPGQAPKLLIYDASNLETGVPSRFSGSGSGTDFTFTISSLHPEDVATYYCQQYDGLPRYVTFGQGTKLEIR = 7.71

As a next step, examine the binder that follows.
Form field pKd, entry antibody 390 (antibody, V domains shown) VH: EVQLVESGGGLIQPGGSLRLSCAASGFTVSSNYMSWVRQAPGKGLEWVSIIYSGGSTYYADSVKGRFTISRDNSKNTLYLQMNSLRAEDSAVYSCATTMVRGLIISYYYGMDVWGQGTTVTVSS VL: QSALTQPASVSGSPGQSITISCTGTSSDVGGYNYVSWYQQHPGKAPKLMIYEVSNRPSGVSNRFSGSKSGNTASLTISGLQAEDEADYYCSSYTSSSTLVFGGGTKLTVL : 9.82
